# System: Yap1 mRNA
# Assay procedure: Dose-dependent inhibition of human Yap1 in A-431 cells (Example 8, 10,000 cells per well, RTS4814)
# Format: cell-based
# Experimental conditions: 2000.00 nM; A-431 cells, 10,000 cells per well, free uptake, approximately 48 hours, RTS4814
Strand notation (5' to 3'): a small letter for the sugar, then the base; units joined by * are phosphorothioate-linked, units joined directly phosphodiester-linked; [ ] holds rarer units or linkages, { } end groups; capitals alone tell only the bases. k = constrained ethyl (cEt); [5mC] = 5-methylcytosine; d = 2'-deoxy (DNA)
Metric name: Yap1 mRNA, % UTC (% UTC)
Field format: number, assumed % UTC, no unit text.

These recorded examples may help you get a feel for the data.
{"columns": ["Substance", "Target of assay", "Unit symbol", "Experimental value"],
 "data": [
  ["1076483 (kA*k[5mC]*kG*dG*dG*dA*dA*dA*dT*d[5mC]*dA*dT*dA*kT*kA*kG; antisense) [compound 1076483]", "Yap1 mRNA", "% UTC", 6],
  ["1076003 (kA*kA*kT*dT*dT*dA*dA*dT*dG*dG*d[5mC]*dT*dT*kG*k[5mC]*kA; antisense) [compound 1076003]", "Yap1 mRNA", "% UTC", 11],
  ["1074407 (kT*kA*kA*dA*dG*dT*dA*dT*d[5mC]*dT*dT*dG*d[5mC]*kT*kG*kG; antisense) [compound 1074407]", "Yap1 mRNA", "% UTC", 8],
  ["1075781 (k[5mC]*kA*kT*dA*dT*dA*dT*dT*dG*dT*dG*dA*d[5mC]*kT*kT*k[5mC]; antisense) [compound 1075781]", "Yap1 mRNA", "% UTC", 3]
]}

Asked: So what does the record say about Yap1 mRNA, % UTC for 1075813 (kA*k[5mC]*kT*dA*dA*dT*dA*dT*dG*d[5mC]*dA*dA*d[5mC]*kT*k[5mC]*kT; antisense) [compound 1075813] ?
Given back: 5

Asked: Same question for 1074409 (kG*kG*kA*dT*dT*dA*dA*dA*dG*dT*dA*dT*d[5mC]*kT*kT*kG; antisense) [compound 1074409] please.
Given back: 7

Asked: Same question for 1074800 (k[5mC]*kA*kA*dA*dT*dA*dG*dT*dG*d[5mC]*dT*dT*dT*kG*kG*kA; antisense) [compound 1074800] please.
Given back: 7

Asked: Same question for 1074413 (kA*k[5mC]*kT*dG*dT*dG*dA*dA*dA*dG*dA*dG*dG*kT*k[5mC]*kA; antisense) [compound 1074413] please.
Given back: 3

Asked: Same question for 1076295 (kG*kT*kA*dT*dA*dT*dT*dA*dG*dT*dG*d[5mC]*d[5mC]*k[5mC]*k[5mC]*k[5mC]; antisense) [compound 1076295] please.
Given back: 3

Asked: Same question for 1074609 (DNA k[5mC]*kT*kA*dG*dT*dT*dA*d[5mC]*dA*dT*d[5mC]*dA*dT*k[5mC]*kT*k[5mC]) [compound 1074609] please.
Given back: 11

---

# System: Yap1 mRNA
# Assay procedure: Antisense inhibition of human Yap1 in A-431 cells by cEt gapmers, single dose (Example 2, RTS4814)
# Type: cell-based
# Experimental conditions: A-431 cells, 5,000 cells per well, free uptake, 2,000 nM modified oligonucleotide, approx. 48 hours, RTS4814, normalized to RIBOGREEN; Table 4; asterisk (*) = targets amplicon region of primer probe set
# Experimental: Modified oligonucleotides were designed to target a Yap1 nucleic acid and were tested for their effect on Yap1 mRNA level in vitro. The modified oligonucleotides were tested in a series of experiments that had similar culture conditions. […] After a treatment period of approximately 48 hours, RNA was isolated from the cells and Yap1 mRNA levels were measured by quantitative real-time RTPCR. […] Yap1 mRNA levels were normalized to total RNA content, as measured by RIBOGREEN®. […]
Strand notation (5' to 3'): a small letter for the sugar, then the base; units joined by * are phosphorothioate-linked, units joined directly phosphodiester-linked; [ ] holds rarer units or linkages, { } end groups; capitals alone tell only the bases. k = constrained ethyl (cEt); [5mC] = 5-methylcytosine; d = 2'-deoxy (DNA)
criterion met means recorded YAP1 (% UTC) is 80 % UTC or above; criterion not met means it is below 80 % UTC.

Consider the worked cases shown below.
{"columns": ["Substance", "Cat"],
 "data": [
  ["716418 (k[5mC]*k[5mC]*kT*dG*dA*dG*dG*dG*d[5mC]*dT*d[5mC]*dT*dA*kT*kA*kA; antisense) [Compound 716418]", "criterion not met"],
  ["716451 (k[5mC]*k[5mC]*k[5mC]*dA*dA*dG*d[5mC]*dT*dA*d[5mC]*dA*dA*d[5mC]*kT*kA*kT; antisense) [Compound 716451]", "criterion not met"],
  ["716565 (kG*kG*kG*d[5mC]*dT*dA*dA*d[5mC]*dT*dA*d[5mC]*dA*dT*kT*kG*k[5mC]; antisense) [Compound 716565]", "criterion met"],
  ["716535 (antisense k[5mC]*k[5mC]*kT*dG*dA*d[5mC]*dT*dG*dA*dA*dA*dA*dT*kA*kA*k[5mC]) [Compound 716535]", "criterion met"],
  ["716370 (k[5mC]*kA*kG*dT*dG*d[5mC]*d[5mC]*dT*dG*d[5mC]*dA*dT*d[5mC]*kA*kG*kT; antisense) [Compound 716370]", "criterion not met"]
]}

Asked: Record 716559 (k[5mC]*k[5mC]*kT*dA*dA*d[5mC]*dA*dT*dA*dT*dG*dA*dG*k[5mC]*kA*kT; antisense) [Compound 716559] ; criterion: YAP1 (% UTC) no lower than 80 % UTC. Met?
Given back: criterion not met

Asked: Same question for 716478 (kT*kA*kT*dT*dT*dT*dA*dA*dT*d[5mC]*dT*dA*dG*kT*k[5mC]*kG; antisense) [Compound 716478] please.
Given back: criterion not met

Asked: Same question for 716436 (kA*k[5mC]*kT*dG*dG*dA*d[5mC]*dA*dA*dA*dG*dG*dA*kA*kG*k[5mC]; antisense) [Compound 716436] please.
Given back: criterion not met

Asked: Same question for 716433 (kA*kG*k[5mC]*dA*dT*d[5mC]*dT*dG*dA*d[5mC]*dT*dT*d[5mC]*kT*kA*kA; antisense) [Compound 716433] please.
Given back: criterion not met

Asked: Same question for 716541 (antisense kT*kA*kA*dA*dG*dG*d[5mC]*dA*d[5mC]*dT*dA*d[5mC]*dA*kT*kT*kT) [Compound 716541] please.
Given back: criterion met

Asked: Same question for 716448 (k[5mC]*k[5mC]*kG*dA*d[5mC]*dA*dA*dA*dA*d[5mC]*d[5mC]*dA*dA*k[5mC]*k[5mC]*kA; antisense) [Compound 716448] please.
Given back: criterion not met

Values compiled from patent US11214803B2.
